System: U-251
Assay: Growth inhibition of human U251 cells assessed as cell growth at 10^-7 M incubated for 48 hrs by sulforhodamine B assay relative to control
Format: functional
Details: U-251, 48 h, read-out: Activity
reported-endpoint: growth at 0.1 µM (%)
Use % as the unit, but write only the number.

substance_smiles=C#C[C@@]1(O)[C@@H](CO)O[C@@H](n2ccc3c(N)ncnc32)[C@@H]1O measured_target=U-251 reading_unit=% observed_measurement=107

Okay, now this molecule:
Record C#C[C@@]1(O)[C@@H](CO)O[C@@H](n2cc(F)c3c(N)ncnc32)[C@@H]1O / U-251, growth at 0.1 µM recorded as 99

---

Test system: SNB-19
Assay: Growth inhibition of human SNB19 cells assessed as cell growth at 10^-7 M incubated for 48 hrs by sulforhodamine B assay relative to control
Format: functional
Details: SNB-19, 48 h, read-out: Activity
reported-endpoint: growth at 0.1 µM (%)
Use % as the unit, but write only the number.

substance_smiles=C#C[C@@]1(O)[C@@H](CO)O[C@@H](n2ccc3c(N)ncnc32)[C@@H]1O observed_measurement=98

The value of growth at 0.1 µM measured for the molecule C#C[C@@]1(O)[C@@H](CO)O[C@@H](n2cc(F)c3c(N)ncnc32)[C@@H]1O turned out to be 79

---

Each entry below carries its reported growth at 10 µM.
System: SNB-19
Test: Growth inhibition of human SNB19 cells assessed as cell growth at 10^-5 M incubated for 48 hrs by sulforhodamine B assay relative to control
Assay type: functional
Conditions: SNB-19, 48 h, read-out: Activity
Use % as the unit, but write only the number.

substance_smiles=C#C[C@@]1(O)[C@@H](CO)O[C@@H](n2ccc3c(N)ncnc32)[C@@H]1O observed_measurement=-15

The value of growth at 10 µM measured for the compound C#C[C@@]1(O)[C@@H](CO)O[C@@H](n2cc(F)c3c(N)ncnc32)[C@@H]1O turned out to be 7

The value of growth at 10 µM measured for the compound C#C[C@@]1(O)[C@@H](CO)O[C@@H](n2cc(Br)c3c(N)ncnc32)[C@@H]1O turned out to be 1

---

System: SR
Test: Growth inhibition of human SR cells assessed as cell growth at 10^-6 M incubated for 48 hrs by sulforhodamine B assay relative to control
Assay type: functional
Conditions: read-out: Activity
reported-endpoint: growth at 1 µM (%)
Use % as the unit, but write only the number.

substance_smiles=C#C[C@@]1(O)[C@@H](CO)O[C@@H](n2cc(F)c3c(N)ncnc32)[C@@H]1O observed_measurement=9

Okay, now this compound:
Record C#C[C@@]1(O)[C@@H](CO)O[C@@H](n2ccc3c(N)ncnc32)[C@@H]1O / SR, growth at 1 µM recorded as 46

---

Test system: KM12
Assay: Growth inhibition of human KM12 cells assessed as cell growth at 10^-8 M incubated for 48 hrs by sulforhodamine B assay relative to control
Assay type: functional
Details: KM12, 48 h, read-out: Activity
Each entry below carries its reported growth at 0.01 µM.

Consider the worked cases shown below.
substance_smiles=C#C[C@@]1(O)[C@@H](CO)O[C@@H](n2cc(Cl)c3c(N)ncnc32)[C@@H]1O observed_measurement="85 to 88%"
substance_smiles=C#C[C@@]1(O)[C@@H](CO)O[C@@H](n2cc(F)c3c(N)ncnc32)[C@@H]1O observed_measurement=104%
substance_smiles=C#C[C@@]1(O)[C@@H](CO)O[C@@H](n2cc(I)c3c(N)ncnc32)[C@@H]1O observed_measurement="94 to 97%"
substance_smiles=C#C[C@@]1(O)[C@@H](CO)O[C@@H](n2ccc3c(N)ncnc32)[C@@H]1O observed_measurement=98%

Okay, now this compound:
The value of growth at 0.01 µM measured for the compound C#C[C@@]1(O)[C@@H](CO)O[C@@H](n2cc(Br)c3c(N)ncnc32)[C@@H]1O turned out to be 91 to 95%
